Recorded measurements of IC50, one per entry
target: UniProt:P14902; experiment: IDO1 HeLa RapidFire MS assay (kynurenine detection by mass spectrometry); format: cell-based; set-up: to induce the expression of indoleamine 2, 3-dioxygenase (IDO1); conditions: HeLa cells, pIC50, read-out: IDO1_HELA_PXC50 (converted)
Sequence (P14902 whole entry): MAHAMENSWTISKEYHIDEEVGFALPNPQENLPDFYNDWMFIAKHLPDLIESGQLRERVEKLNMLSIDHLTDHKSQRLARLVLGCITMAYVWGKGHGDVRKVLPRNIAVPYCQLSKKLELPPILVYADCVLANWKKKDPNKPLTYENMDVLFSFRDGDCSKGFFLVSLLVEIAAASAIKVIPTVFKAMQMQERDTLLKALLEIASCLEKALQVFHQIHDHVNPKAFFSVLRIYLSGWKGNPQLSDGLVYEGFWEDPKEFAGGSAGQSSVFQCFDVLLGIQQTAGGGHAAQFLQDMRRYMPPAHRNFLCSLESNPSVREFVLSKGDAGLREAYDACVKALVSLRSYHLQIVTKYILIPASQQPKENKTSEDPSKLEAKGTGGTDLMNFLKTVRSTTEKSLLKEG
QUANTITY KIND: IC50 (nM)

[
  {
    "MOLECULE": "CC(C)CN(c1ccc([C@H](C)CC(=O)O)cc1Nc1cccc(C(F)(F)F)n1)C1CCCCC1 [example 172]",
    "QUANTITY KIND": "IC50",
    "QUALIFIER SIGN": "=",
    "NUMBER": 79.4
  },
  {
    "MOLECULE": "CC(C)CN(c1ccc(-c2ccccc2C(=O)O)cc1Nc1nc2ccccc2o1)C1CCOCC1 [example 291]",
    "QUANTITY KIND": "IC50",
    "QUALIFIER SIGN": "=",
    "NUMBER": 100
  },
  {
    "MOLECULE": "CC(C)CN(c1ccc(C(C)CC(=O)O)cc1Nc1nc2ccccn2n1)C1CCCCC1 (stereo not shown) [example 145]",
    "QUANTITY KIND": "IC50",
    "QUALIFIER SIGN": "=",
    "NUMBER": 794
  },
  {
    "MOLECULE": "CC(C)CN(c1ccc(-c2ccccc2C(=O)O)cc1Nc1nc(C(N)=O)ns1)C1CCCCC1 [Example 91]",
    "QUANTITY KIND": "IC50",
    "QUALIFIER SIGN": "=",
    "NUMBER": 20
  },
  {
    "MOLECULE": "CC(C)CN(CC(C)C)c1ccc(C(C)CC(=O)O)cc1Nc1nnn[nH]1 (stereo not shown) [example 168]",
    "QUANTITY KIND": "IC50",
    "QUALIFIER SIGN": ">",
    "NUMBER": 10000
  },
  {
    "MOLECULE": "CC(C)CN(CC(C)C)c1ccc(C(C)CC(=O)O)cc1Nc1nc(-c2ccccc2)cs1 (stereo not shown) [example 128]",
    "QUANTITY KIND": "IC50",
    "QUALIFIER SIGN": "=",
    "NUMBER": 2510
  },
  {
    "MOLECULE": "Cc1nnc(Nc2cc([C@H](C)CC(=O)O)ccc2N(CC(C)C)CC(C)C)s1 [example 186]",
    "QUANTITY KIND": "IC50",
    "QUALIFIER SIGN": "=",
    "NUMBER": 79.4
  },
  {
    "MOLECULE": "COCc1nnc(Nc2cc([C@H](C)CC(=O)O)ccc2N(CC(C)C)CC(C)C)[nH]1 [example 190]",
    "QUANTITY KIND": "IC50",
    "QUALIFIER SIGN": "=",
    "NUMBER": 79.4
  },
  {
    "MOLECULE": "CC(C)CN(c1ccc([C@H](C)CC(=O)O)cc1NC1CCC1)C1CCCCC1 [example 181]",
    "QUANTITY KIND": "IC50",
    "QUALIFIER SIGN": "=",
    "NUMBER": 316
  },
  {
    "MOLECULE": "CC(C)CN(c1ccc([C@H](C)CC(=O)O)cc1Nc1ccc(Cl)nc1)C1CCCCC1 [Example 74]",
    "QUANTITY KIND": "IC50",
    "QUALIFIER SIGN": "=",
    "NUMBER": 3.98
  }
]
